Every entry's value here was drawn from the supplement of paper PMC10307832.

- Test system: HCC-44
- TEST METHOD NOTES: relative viability (nuclei count vs DMSO), 5 days (fraction); higher = more cells survive
- STATED CONDITIONS: first compound 0.02 µM
PROPERTY LABEL: relative viability
Form field (numeric): enter value without unit.

Sample records with relative viability:
INSERT INTO results (compound, property_label, observed_measurement) VALUES
  ('CCNC(=O)c1noc(-c2cc(C(C)C)c(O)cc2O)c1-c1ccc(CN2CCOCC2)cc1 [Luminespib] + CC(=O)Nc1cccc(-n2c(=O)n(C3CC3)c(=O)c3c(Nc4ccc(I)cc4F)n(C)c(=O)c(C)c32)c1 [Trametinib] (partner 0.02 µM)', 'relative viability', 1.24),
  ('CN1CCN(CCOc2cc(OC3CCOCC3)c3c(Nc4c(Cl)ccc5c4OCO5)ncnc3c2)CC1 [Saracatinib] + C[C@]1(O)C[C@@H](c2nc(-c3ccc4ccc(-c5ccccc5)nc4c3)c3c(N)nccn32)C1 [Linsitinib] (partner 1 µM)', 'relative viability', 0.729),
  ('CCNC(=O)c1noc(-c2cc(C(C)C)c(O)cc2O)c1-c1ccc(CN2CCOCC2)cc1 [Luminespib] + COc1cccc2cc(-c3nc([C@H]4CC[C@H](C(=O)O)CC4)n4ncnc(N)c34)[nH]c12 [OSI-027] (partner 0.5 µM)', 'relative viability', 0.483),
  ('CCNC(=O)c1noc(-c2cc(C(C)C)c(O)cc2O)c1-c1ccc(CN2CCOCC2)cc1 [Luminespib] + C[C@]1(O)C[C@@H](c2nc(-c3ccc4ccc(-c5ccccc5)nc4c3)c3c(N)nccn32)C1 [Linsitinib] (partner 1 µM)', 'relative viability', 0.684),
  ('CCNC(=O)c1noc(-c2cc(C(C)C)c(O)cc2O)c1-c1ccc(CN2CCOCC2)cc1 [Luminespib] + CC1(C)CCC(c2ccc(Cl)cc2)=C(CN2CCN(c3ccc(C(=O)NS(=O)(=O)c4ccc(N[C@H](CCN5CCOCC5)CSc5ccccc5)c(S(=O)(=O)C(F)(F)F)c4)cc3)CC2)C1 [Navitoclax] (partner 0.5 µM)', 'relative viability', 1.18);

Measured relative viability, CCNC(=O)c1noc(-c2cc(C(C)C)c(O)cc2O)c1-c1ccc(CN2CCOCC2)cc1 [Luminespib] + C[C@@H](Oc1cc(-c2cnn(C3CCNCC3)c2)cnc1N)c1c(Cl)ccc(F)c1Cl [Crizotinib] (partner 1 µM) : 1

Measured relative viability, CCNC(=O)c1noc(-c2cc(C(C)C)c(O)cc2O)c1-c1ccc(CN2CCOCC2)cc1 [Luminespib] + CC(C)C[C@H](NC(=O)[C@H](Cc1ccccc1)NC(=O)c1cnccn1)B(O)O [Bortezomib] (partner 0.002 µM) : 1.09

Measured relative viability, CN1CCN(CCOc2cc(OC3CCOCC3)c3c(Nc4c(Cl)ccc5c4OCO5)ncnc3c2)CC1 [Saracatinib] + CCNC(=O)c1noc(-c2cc(C(C)C)c(O)cc2O)c1-c1ccc(CN2CCOCC2)cc1 [Luminespib] (partner 0.01 µM) : 0.972

Measured relative viability, CN1CCN(CCOc2cc(OC3CCOCC3)c3c(Nc4c(Cl)ccc5c4OCO5)ncnc3c2)CC1 [Saracatinib] + COc1cccc2cc(-c3nc([C@H]4CC[C@H](C(=O)O)CC4)n4ncnc(N)c34)[nH]c12 [OSI-027] (partner 0.5 µM) : 0.483

----------
- System: NCI-H2405
- TEST METHOD NOTES: relative viability (nuclei count vs DMSO), 5 days (fraction); higher = more cells survive
- STATED CONDITIONS: first compound 0.06325 µM
Listed next: entries and their corresponding relative viability.
Form field (numeric): enter value without unit.

INSERT INTO assay_data (molecule, property_label, observed_measurement) VALUES
  ('CCNC(=O)c1noc(-c2cc(C(C)C)c(O)cc2O)c1-c1ccc(CN2CCOCC2)cc1 [Luminespib] + COc1cc2c(Oc3ccc(NC(=O)C4(C(=O)Nc5ccc(F)cc5)CC4)cc3F)ccnc2cc1OCCCN1CCOCC1 [Foretinib] (partner 0.25 µM)', 'relative viability', 0.227);

Let's switch to this molecule now.
The measured relative viability that CCNC(=O)c1noc(-c2cc(C(C)C)c(O)cc2O)c1-c1ccc(CN2CCOCC2)cc1 [Luminespib] + Cc1cc(Nc2cc(N3CCN(C)CC3)nc(Sc3ccc(NC(=O)C4CC4)cc3)n2)n[nH]1 [Tozasertib] (partner 0.1 µM) showed for NCI-H2405 is 0.34

----------
- Tested on: NCI-H1944
- TEST METHOD NOTES: relative viability (nuclei count vs DMSO), 5 days (fraction); higher = more cells survive
- STATED CONDITIONS: first compound 0.2 µM
Listed next: entries and their corresponding relative viability.

Sample records with relative viability:
INSERT INTO results (molecule, property_label, observed_measurement) VALUES
  ('Cc1csc(=NC2CCCCC2)n1/N=C/c1ccc(O)c(O)c1O [MIM1] + CCNC(=O)c1noc(-c2cc(C(C)C)c(O)cc2O)c1-c1ccc(CN2CCOCC2)cc1 [Luminespib] (partner 0.01 µM)', 'relative viability', 0.632),
  ('Cc1csc(=NC2CCCCC2)n1/N=C/c1ccc(O)c(O)c1O [MIM1] + Nc1nc2[nH]cc(CCc3ccc(C(=O)N[C@@H](CCC(=O)O)C(=O)O)cc3)c2c(=O)[nH]1 [Pemetrexed] (partner 0.2 µM)', 'relative viability', 0.586),
  ('Cc1csc(=NC2CCCCC2)n1/N=C/c1ccc(O)c(O)c1O [MIM1] + C[C@]1(O)C[C@@H](c2nc(-c3ccc4ccc(-c5ccccc5)nc4c3)c3c(N)nccn32)C1 [Linsitinib] (partner 1 µM)', 'relative viability', 1.12);

Measured relative viability, Cc1csc(=NC2CCCCC2)n1/N=C/c1ccc(O)c(O)c1O [MIM1] + CC1(C)CCC(c2ccc(Cl)cc2)=C(CN2CCN(c3ccc(C(=O)NS(=O)(=O)c4ccc(N[C@H](CCN5CCOCC5)CSc5ccccc5)c(S(=O)(=O)C(F)(F)F)c4)cc3)CC2)C1 [Navitoclax] (partner 0.5 µM) : 0.985

----------
Listed next: entries and their corresponding relative viability.
- System: HCC-366
- TEST METHOD NOTES: relative viability (nuclei count vs DMSO), 5 days (fraction); higher = more cells survive
- STATED CONDITIONS: first compound 0.8 µM
Form field (numeric): enter value without unit.

Sample records with relative viability:
INSERT INTO measurements (compound, target_system, property_label, observed_measurement) VALUES
  ('Nc1cccc2c1CN(C1CCC(=O)NC1=O)C2=O (centres undefined) [Lenalidomide] + COc1cc2c(Oc3ccc(NC(=O)C4(C(=O)Nc5ccc(F)cc5)CC4)cc3F)ccnc2cc1OCCCN1CCOCC1 [Foretinib] (partner 0.25 µM)', 'HCC-366', 'relative viability', 1.04),
  ('Nc1cccc2c1CN(C1CCC(=O)NC1=O)C2=O (centres undefined) [Lenalidomide] + Cc1nc(Nc2ncc(C(=O)Nc3c(C)cccc3Cl)s2)cc(N2CCN(CCO)CC2)n1 [Dasatinib] (partner 0.075 µM)', 'HCC-366', 'relative viability', 0.622),
  ('Nc1cccc2c1CN(C1CCC(=O)NC1=O)C2=O (centres undefined) [Lenalidomide] + C[C@@H](Oc1cc(-c2cnn(C3CCNCC3)c2)cnc1N)c1c(Cl)ccc(F)c1Cl [Crizotinib] (partner 1 µM)', 'HCC-366', 'relative viability', 0.499);

Let's switch to this compound now.
The measured relative viability that Nc1cccc2c1CN(C1CCC(=O)NC1=O)C2=O (centres undefined) [Lenalidomide] + CC1(C)CCC(c2ccc(Cl)cc2)=C(CN2CCN(c3ccc(C(=O)NS(=O)(=O)c4ccc(N[C@H](CCN5CCOCC5)CSc5ccccc5)c(S(=O)(=O)C(F)(F)F)c4)cc3)CC2)C1 [Navitoclax] (partner 0.5 µM) showed for HCC-366 is 1.19

----------
- Tested on: NCI-H1755
- TEST METHOD NOTES: relative viability (nuclei count vs DMSO), 5 days (fraction); higher = more cells survive
- STATED CONDITIONS: first compound 0.003162 µM
Listed next: entries and their corresponding relative viability.
Form field (numeric): enter value without unit.

Sample records with relative viability:
INSERT INTO assay_data (molecule, observed_measurement) VALUES
  ('Cc1cn(-c2cc(NC(=O)c3ccc(C)c(Nc4nccc(-c5cccnc5)n4)c3)cc(C(F)(F)F)c2)cn1 [Nilotinib] + N=C(N)NC(=N)NCCc1ccccc1 [Phenformin] (partner 250 µM)', 0.616),
  ('Cc1cn(-c2cc(NC(=O)c3ccc(C)c(Nc4nccc(-c5cccnc5)n4)c3)cc(C(F)(F)F)c2)cn1 [Nilotinib] + CC(C)C[C@H](NC(=O)[C@H](Cc1ccccc1)NC(=O)c1cnccn1)B(O)O [Bortezomib] (partner 0.002 µM)', 1.16),
  ('Cc1cn(-c2cc(NC(=O)c3ccc(C)c(Nc4nccc(-c5cccnc5)n4)c3)cc(C(F)(F)F)c2)cn1 [Nilotinib] + Cc1nc(Nc2ncc(C(=O)Nc3c(C)cccc3Cl)s2)cc(N2CCN(CCO)CC2)n1 [Dasatinib] (partner 0.075 µM)', 0.381);

Measured relative viability, Cc1cn(-c2cc(NC(=O)c3ccc(C)c(Nc4nccc(-c5cccnc5)n4)c3)cc(C(F)(F)F)c2)cn1 [Nilotinib] + CS(=O)(=O)N1CCN(Cc2cc3nc(-c4cccc5[nH]ncc45)nc(N4CCOCC4)c3s2)CC1 [Pictilisib] (partner 1 µM) : 0.466

Measured relative viability, Cc1cn(-c2cc(NC(=O)c3ccc(C)c(Nc4nccc(-c5cccnc5)n4)c3)cc(C(F)(F)F)c2)cn1 [Nilotinib] + O=C(c1cc(Cc2n[nH]c(=O)c3ccccc23)ccc1F)N1CCN(C(=O)C2CC2)CC1 [Olaparib] (partner 8 µM) : 1.02

Measured relative viability, Cc1cn(-c2cc(NC(=O)c3ccc(C)c(Nc4nccc(-c5cccnc5)n4)c3)cc(C(F)(F)F)c2)cn1 [Nilotinib] + NC(=O)Nc1cc(-c2cccc(F)c2)sc1C(=O)N[C@H]1CCCNC1 [AZD7762] (partner 0.2 µM) : 0.499
